EXPERIMENTAL TARGET: Prolyl endopeptidase-like (Homo sapiens) (UniProt Q4J6C6)
Sequence (Q4J6C6 whole entry, looked up): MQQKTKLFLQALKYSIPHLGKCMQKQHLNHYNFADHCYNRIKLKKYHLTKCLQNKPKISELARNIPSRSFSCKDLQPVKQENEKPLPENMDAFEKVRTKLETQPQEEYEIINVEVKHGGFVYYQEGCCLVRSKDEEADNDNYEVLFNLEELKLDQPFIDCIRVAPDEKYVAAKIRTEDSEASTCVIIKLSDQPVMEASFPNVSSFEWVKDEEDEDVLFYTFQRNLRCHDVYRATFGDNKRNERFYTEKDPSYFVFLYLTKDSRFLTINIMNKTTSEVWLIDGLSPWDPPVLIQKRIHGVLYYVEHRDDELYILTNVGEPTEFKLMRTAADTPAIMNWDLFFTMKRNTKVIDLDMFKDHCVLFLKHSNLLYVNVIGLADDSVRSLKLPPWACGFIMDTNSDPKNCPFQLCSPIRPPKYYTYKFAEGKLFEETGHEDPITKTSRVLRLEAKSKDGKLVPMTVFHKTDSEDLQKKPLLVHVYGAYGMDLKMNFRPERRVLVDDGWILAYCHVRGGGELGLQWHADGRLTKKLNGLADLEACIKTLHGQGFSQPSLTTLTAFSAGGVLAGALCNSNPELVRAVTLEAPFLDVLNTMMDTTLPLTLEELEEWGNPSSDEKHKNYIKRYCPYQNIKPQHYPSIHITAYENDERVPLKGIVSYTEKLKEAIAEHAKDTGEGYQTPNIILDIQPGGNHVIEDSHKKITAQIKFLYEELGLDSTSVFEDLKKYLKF
TEST NAME: PREPL enzyme inhibitors, primary screen, biochemical, fluorescence polarization (AID 2751);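 also: 0% = enzyme with DMSO and 100% = wells lacking enzyme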
STATED CONDITIONS: recombinant PREPL, fluorescence polarization activity-based probe; at 5.96 µM; hits give high values
The campaign covered roughly 320,000 compounds. About 2,200 (0.69%) were called active. The sample as a whole holds a higher share of actives than the screen did.
inhibition below 10% gives label 0; inhibition at or above it gives label 1.

Has CCOc1ccccc1C1CC(c2ccccc2)Nc2nc(N)nn21 (stereo unspecified) a recorded inhibition greater than or equal to 10%?
label 0

Query Cc1ccc(C2CC(c3cccc(C)c3)n3nc(N)nc3N2)cc1 (stereo unspecified) next
label 1

And CCN(CC)CC(=O)Nc1sc2c(c1C(=O)c1ccccc1C)CCC2 ?
label 0

One more molecule: O=C(c1ccco1)N1CCN(C(=O)C2CCCN(S(=O)(=O)c3cccc4nsnc34)C2)CC1 (stereo unspecified)
label 0

# repeat for CCOc1ccccc1C1CC(c2ccc(Cl)cc2)Nc2nc(N)nn21 (stereo unspecified)
label 1

----------
EXPERIMENTAL TARGET: Prolyl endopeptidase-like (Homo sapiens)
TEST NAME: PREPL enzyme inhibitors, primary screen, biochemical, fluorescence polarization (AID 2751);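 also: 0% = enzyme with DMSO and 100% = wells lacking enzyme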
STATED CONDITIONS: recombinant PREPL, fluorescence polarization activity-based probe; at 5.96 µM; hits give high values
The campaign covered roughly 320,000 compounds. About 2,200 (0.69%) were called active. This is one part of a sample in which actives are shown more often than they occur.
REPORTED METRIC: inhibition (%)
Report the value in % with no unit label.

Which inhibition is listed for O=C(Cn1cnc2ccccc2c1=O)NNC(=O)c1ccccc1F ?
9.97

Would you mind doing Cc1ccc(CN(CC(=O)NCC2CCCO2)S(=O)(=O)c2ccc(C)cc2)cc1 (stereo not drawn) as well?
-1.14

Input C#CCOCCOCCOCCNc1nc(N2CCN(C(=O)CCCCCCCCCCNC(=O)[C@H]([C@@H](C)CC)n3cc(CCCCN=C(N)N)nn3)CC2)nc(N2CCN(C(=O)CCCCCCCCCCNC(=O)[C@H](CO)n3cc(CCCSC)nn3)CC2)n1
29.9

Would you mind doing C#CCOCCOCCOCCNc1nc(N2CCN(C(=O)CCCCCCCCCCNC(=O)[C@H](CCCCN)n3cc(C)nn3)CC2)nc(N2CCN(C(=O)CCCCCCCCCCNC(=O)[C@H](CO)n3cc(CCCSC)nn3)CC2)n1 as well?
35.2

Then what about the molecule c1ccc2c(NCC3CCCO3)nc(-c3ccncc3)nc2c1 (stereo not drawn) ?
5.66

Same thing, different molecule: O=S(=O)(c1ccccc1)N1CN(Cc2ccc(F)cc2)c2nc3ccccc3nc21
-7.37

Entry to check: COc1ccc(CNc2ncnc3ccccc23)cc1
-16.5

Same lookup for COc1ccc(/C(O)=C2/C(=O)C(=O)N(CC3CCCO3)C2c2ccc(OC)c(OC)c2)cc1 (stereo not drawn) , please.
1.2

----------
EXPERIMENTAL TARGET: Prolyl endopeptidase-like (Homo sapiens) (UniProt Q4J6C6)
TEST NAME: PREPL enzyme inhibitors, primary screen, biochemical, fluorescence polarization (AID 2751);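 also: 0% = enzyme with DMSO and 100% = wells lacking enzyme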
STATED CONDITIONS: recombinant PREPL, fluorescence polarization activity-based probe; at 5.96 µM
Among all 320,000 compounds or so, about 2,200 (0.69%) were called active. Cut-off read from the data, not from the text of the source: active = inhibition above about 43%; inactive = the rest. The full list was thinned out, with actives kept by preference.
Parameter call: string, one of active, inactive

Look up the recorded call for CC(Sc1nc2c([nH]c3ccccc32)c(=O)n1C)c1ccccc1 (stereo not drawn) in this test.
inactive

Try this compound next: COc1cccc2c1OCC(C(=O)NCc1ccc(Cl)cc1Cl)=C2
inactive

Please do the same for N=c1n(Cc2ccc(Cl)cc2)c2ccccc2n1CC(O)c1ccco1 (stereo not drawn) as well.
inactive

Also CCN(C(=O)COC(=O)C1CCN(S(=O)(=O)c2ccc(C)c(C)c2)CC1)C1CCS(=O)(=O)C1 (stereo not drawn) , if possible.
inactive

Input CCc1ccc(/C=C2\SC(N3CCOCC3)=NC2=O)cc1
inactive

Next compound up: COc1ccc(-c2cc(C(=O)Nc3ccccc3O)c3ccccc3n2)cc1
inactive

Would you mind doing CC1CCN(C2=NC(=O)/C(=C/c3ccc(O)cc3)S2)CC1 as well?
inactive

Same again, this time with Cc1ccccc1OCC(=O)Nc1ccc2c(c1)ncn2C
inactive

And O=C(NCc1cccnc1)c1ccc(CS(=O)(=O)c2ccc(Br)cc2)o1 ?
inactive

Same lookup for CCN1CC(CN(C)Cc2nc(-c3ccc(Cl)cc3)no2)CC1=O (stereo not drawn) , please.
inactive

Another: CC1CCC2(CC1)NC(=O)N(CC(=O)c1ccc3c(c1)OCO3)C2=O (stereo not drawn)
inactive

Same for O=C(CCN1C(=O)COc2ccccc21)NCCCN1CCN(c2ccc(F)cc2)CC1
inactive

// repeat for CN(CCc1ccccn1)C1CCCN(S(=O)(=O)c2ccccc2Cl)C1 (stereo not drawn) and report
inactive

Query CC1=CC(C)(C)NC(=S)N1c1ccccc1 next
inactive

Proceed to Cc1ccc(S(=O)(=O)c2nc(-c3cccs3)oc2NCc2cccnc2)cc1
inactive

Please answer likewise for Cc1noc(C)c1COC(=O)c1cc2ccccc2cc1O
inactive

Now try NC(=O)CSc1c[nH]c2ccccc12 .
inactive

What about Cc1cccc(N2CCN(C(C)C(=O)N3CCc4ccccc43)CC2)c1C (stereo not drawn) ?
inactive

Continue with O=S(=O)(O)Oc1c[nH]c2ccccc12
active

Request: CCc1cc(=O)oc2cc(C)cc(OCC(=O)N3CCC[C@@H]3C(=O)O)c12
inactive

Next up: O=C(NNc1c2ccccc2nc2ccccc12)c1cc2ccccc2cc1O
active

Now consider COCCN(CCOC)c1nc(N)c2c(N)nc3c(c2c1C#N)CC(=O)N3Cc1ccc(Cl)cc1 and answer again.
active

Now the same for C=Cn1cc[n+](CC(=O)c2ccc(OC)c(OC)c2)c1
inactive
